Test: In vitro liver microsomal stability, human
Assay type: in vitro ADME
Details: 1 μM compound, 500 μg/mL liver microsomes, NADPH
Overview of reported half-life at 1 μM across a group of compounds:
assayReadout: half-life at 1 μM

- compound: "Cc1nc2ccc(CN3CCN(c4ccc(C(=O)N[C@@H]5C[C@@H]5F)nc4F)CC3)cc2[nH]c1=O"
  assayReadout: "half-life at 1 μM"
  observed: "3.88 h"
- compound: "Cc1nc2ccc(CN3CCN(c4ccc(C(=O)NC5CC5)nc4F)CC3)c(F)c2[nH]c1=O"
  assayReadout: "half-life at 1 μM"
  observed: "1.67 h"
- compound: "CNC(=O)c1ccc(N2CCN(Cc3ccc4nc(C)c(=O)[nH]c4c3F)CC2)c(F)n1 [AZD9574, reference compound]"
  assayReadout: "half-life at 1 μM"
  observed: "1.72 h"
- compound: "Cc1nc2ccc(CN3CCN(c4ccc(C(=O)N[C@H]5C[C@H]5F)nc4F)CC3)cc2[nH]c1=O"
  assayReadout: "half-life at 1 μM"
  observed: "8.23 h"
- compound: "Cc1nc2ccc(CN3CCN(c4ccc(C(=O)NC5CC5)nc4F)CC3)cc2[nH]c1=O"
  assayReadout: "half-life at 1 μM"
  observed: "3.8 h"
